Recorded values, source paper PMC9184463.

Subject of test: wild-type hEAAT2 (Homo sapiens)
Construct: Strep Tag II (N); superfolder GFP (sfGFP) (N)
Procedure text: whole-cell patch-clamp of hEAAT2-associated anion current, wild-type hEAAT2 in HEK293T cells
Measurement conditions: wild-type hEAAT2, HEK293T, 0 mV, Michaelis-Menten-like fit; read-out: apparent Ki (inhibition of anion leak current)
Value type: Ki (nM)
Field: numeric (nM). Do not append units.

Looking for the measured Ki of NC(CC(=O)Nc1ccc(Oc2cc(F)c(F)cc2Br)cc1)C(=O)O (stereo not shown) , can you help? 70

* * *

Subject of test: hEAAT2 mutant D475A (Homo sapiens, UniProt P43004, D475A)
Construct: Strep Tag II (N); superfolder GFP (sfGFP) (N)
Sequence (P43004 whole entry D475A): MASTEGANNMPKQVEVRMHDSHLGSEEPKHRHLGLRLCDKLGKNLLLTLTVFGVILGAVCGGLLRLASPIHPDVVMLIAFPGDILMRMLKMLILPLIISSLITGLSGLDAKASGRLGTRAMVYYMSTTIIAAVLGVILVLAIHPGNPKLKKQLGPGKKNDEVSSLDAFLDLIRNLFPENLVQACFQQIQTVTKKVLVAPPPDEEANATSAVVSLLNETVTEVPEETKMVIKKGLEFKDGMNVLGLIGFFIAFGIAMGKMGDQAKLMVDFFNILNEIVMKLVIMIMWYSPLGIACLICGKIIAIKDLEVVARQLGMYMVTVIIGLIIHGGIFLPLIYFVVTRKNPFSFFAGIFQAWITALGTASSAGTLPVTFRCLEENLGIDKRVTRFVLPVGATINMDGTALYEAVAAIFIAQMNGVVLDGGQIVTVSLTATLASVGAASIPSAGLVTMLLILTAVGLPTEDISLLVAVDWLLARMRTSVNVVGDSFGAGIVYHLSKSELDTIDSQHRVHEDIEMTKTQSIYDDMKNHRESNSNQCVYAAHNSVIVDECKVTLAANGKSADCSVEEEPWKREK
Procedure text: whole-cell patch-clamp, hEAAT2 mutant D475A in HEK293T cells
Measurement conditions: D475A mutant, 0 mV; read-out: apparent Ki
Value type: pKi
pKi here is simply -log10 of the concentration when that concentration is written in mol/L.

// map NC(CC(=O)Nc1ccc(Oc2cc(F)c(F)cc2Br)cc1)C(=O)O (stereo not shown) [WAY-213613] to recorded pKi (system: hEAAT2 mutant D475A (Homo sapiens, UniProt P43004, D475A)) 4.52
